Tested on: common ragweed (Ambrosia artemisiaefolia)
protocol.description: Test on herbicidal effects by soil treatment: common ragweed
Format: in vivo
test.parameters: 10 g/ha, four weeks after application
Each item that follows carries a reported Fresh weight ratio with respect to untreated weeds, A.ar.
measured.attribute: Fresh weight ratio with respect to untreated weeds, A.ar (%)

- compound: "CCS(=O)(=O)N(C(=O)c1ccc(OC)cc1)c1cc(-n2c(=O)cc(C(F)(F)F)n(C)c2=O)c(F)cc1Cl"
  numeric.value: 14
- compound: "CCS(=O)(=O)Nc1cc(-n2c(=O)cc(C(F)(F)F)n(C)c2=O)c(F)cc1Cl"
  numeric.value: 7
- compound: "CC1COc2ccccc2N1C(=O)C(Cl)Cl (centres unmarked) [Compound (E)]"
  numeric.value: 100
- compound: "O=C(C(Cl)Cl)N1CCOC12CCCCC2"
  numeric.value: 100
- compound: "CC1(C)OC(c2ccco2)CN1C(=O)C(Cl)Cl (centres unmarked)"
  numeric.value: 100
- compound: "CCS(=O)(=O)N(C(=O)C(C)(C)C)c1cc(-n2c(=O)cc(C(F)(F)F)n(C)c2=O)c(F)cc1C#N"
  numeric.value: 11
- compound: "CC1(C)CN2C(=O)CCC2(C)N(C(=O)C(Cl)Cl)C1 (centres unmarked)"
  numeric.value: 100
- compound: "Cn1c(C(F)(F)F)cc(=O)n(-c2cc(NS(C)(=O)=O)c(C#N)cc2F)c1=O"
  numeric.value: 10

The values you see were collected from patent US6562756B1.
